assay-system: EGFR (HCC827 cells) (Homo sapiens, UniProt P00533, DEL746-750)
Construct: endogenous in cells; host or cells: HCC827
Sequence (P00533 with tags, fused parts or gaps DEL746-750): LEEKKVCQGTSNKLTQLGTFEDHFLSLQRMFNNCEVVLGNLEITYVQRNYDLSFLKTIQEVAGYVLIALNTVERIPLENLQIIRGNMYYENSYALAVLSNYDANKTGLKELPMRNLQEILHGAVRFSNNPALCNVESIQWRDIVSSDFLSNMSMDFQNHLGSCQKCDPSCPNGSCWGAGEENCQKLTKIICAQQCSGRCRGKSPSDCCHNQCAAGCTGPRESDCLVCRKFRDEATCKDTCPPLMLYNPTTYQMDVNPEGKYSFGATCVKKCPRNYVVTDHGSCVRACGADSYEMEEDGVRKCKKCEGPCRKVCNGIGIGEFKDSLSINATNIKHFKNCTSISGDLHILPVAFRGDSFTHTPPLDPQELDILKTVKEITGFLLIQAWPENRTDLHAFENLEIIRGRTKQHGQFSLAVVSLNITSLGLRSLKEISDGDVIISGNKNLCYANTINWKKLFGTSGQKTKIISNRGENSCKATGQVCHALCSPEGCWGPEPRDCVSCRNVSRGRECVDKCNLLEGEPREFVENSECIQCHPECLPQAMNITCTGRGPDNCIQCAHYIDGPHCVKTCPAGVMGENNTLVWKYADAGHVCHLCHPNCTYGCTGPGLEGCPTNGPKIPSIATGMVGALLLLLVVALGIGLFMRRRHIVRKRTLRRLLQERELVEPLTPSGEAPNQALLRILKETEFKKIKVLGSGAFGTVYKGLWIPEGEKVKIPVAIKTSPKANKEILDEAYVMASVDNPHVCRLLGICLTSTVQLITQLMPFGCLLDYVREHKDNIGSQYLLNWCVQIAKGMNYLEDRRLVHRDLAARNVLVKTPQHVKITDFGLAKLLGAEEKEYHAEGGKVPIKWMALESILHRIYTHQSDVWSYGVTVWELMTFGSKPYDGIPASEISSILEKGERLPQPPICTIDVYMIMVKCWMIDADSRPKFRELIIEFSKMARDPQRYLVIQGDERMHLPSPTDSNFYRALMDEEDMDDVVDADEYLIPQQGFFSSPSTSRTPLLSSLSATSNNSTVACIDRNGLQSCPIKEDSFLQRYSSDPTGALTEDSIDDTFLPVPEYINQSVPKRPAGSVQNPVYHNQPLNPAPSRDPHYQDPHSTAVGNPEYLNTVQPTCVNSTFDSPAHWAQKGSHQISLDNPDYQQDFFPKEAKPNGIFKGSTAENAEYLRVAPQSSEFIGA
protocol-description: EGFR degradation HTRF assay, HCC827 cells
Format: cell-based
test-conditions: HCC827, 16h treatment, maximum percentage of degradation
Structures can show the parent of a compound that is named as a salt.
Kindly apply the following: satisfied if Dmax is less than 80%, not satisfied in every other case.

compound: COc1cc(N2CCC(N3CCN(C(=O)C4CCN(CC5CCN(c6ccc7c(c6)C(=O)N(C6CCC(=O)NC6=O)C7=O)CC5)CC4)CC3)CC2)ccc1Nc1ncc(Cl)c(Nc2ccccc2N(C)S(C)(=O)=O)n1 (centres unmarked) [Example 129]
label-class: not satisfied
//
compound: CCc1cc(Nc2ncc(Br)c(Nc3ccc4nccnc4c3P(C)(C)=O)n2)c(OC)cc1N1CCC(N2CCN(CCOc3ccc(C4CCC(=O)NC4=O)cc3)CC2)CC1 (centres unmarked) [Example 17, formate]
label-class: satisfied
//
compound: COc1cc(N2CCC(N3CCN(C(=O)CCCCN4CCN(c5ccc6c(c5)C(=O)N(C5CCC(=O)NC5=O)C6=O)CC4)CC3)CC2)ccc1Nc1ncc(Cl)c(Nc2ccccc2N(C)S(C)(=O)=O)n1 (centres unmarked) [Example 128]
label-class: not satisfied
//
compound: COc1cc(N2CCC(N3CCN(CCCOc4ccc(NC5CCC(=O)NC5=O)cc4)CC3)CC2)ccc1Nc1ncc(Cl)c(Nc2ccccc2NS(C)(=O)=O)n1 (centres unmarked) [Example 143]
label-class: satisfied
//
compound: CCc1cc(Nc2ncc(Br)c(Nc3ccc4nccnc4c3P(C)(C)=O)n2)c(OC)cc1N1CCC(N2CCN(CCc3ccc(C4CCC(=O)NC4=O)cc3)CC2)CC1 (centres unmarked) [Example 1]
label-class: not satisfied
//
compound: CCc1cc(Nc2ncc(Br)c(Nc3ccc4nccnc4c3P(C)(C)=O)n2)c(OC)cc1N1CCC(N2CCN(CCc3cccc4c3n(C)c(=O)n4C3CCC(=O)NC3=O)CC2)CC1 (centres unmarked) [Example 318]
label-class: not satisfied
//
compound: CCc1cc(Nc2ncc(Br)c(Nc3ccc4nccnc4c3P(C)(C)=O)n2)c(OC)cc1N1CCC(N2CCN(C3CC(c4ccc5c(c4)C(C)(C)C(=O)N5C4CCC(=O)NC4=O)C3)CC2)CC1 (centres unmarked) [Example 317]
label-class: satisfied
//
compound: CCc1cc(Nc2ncc(Br)c(Nc3ccc4nccnc4c3P(C)(C)=O)n2)c(OC)cc1N1CCC(N2CCN(CCc3ccc(C4CCC(=O)NC4=O)c(F)c3)CC2)CC1 (centres unmarked) [Example 5]
label-class: not satisfied

###

# Dmax (%) H1975 # 28 DTC values compiled below
Test system: EGFR Del19/T790M/C797S (H1975-clone #28)
protocol-description: EGFR degradation HTRF assay, H1975-clone #28 DTC cells
Format: cell-based
test-conditions: H1975 # 28 DTC cells; maximum percentage of inhibition (degradation)

compound: CCOc1cc(N2CCC(N3CCN(CC4CN(c5cccc6c5oc(=O)n6C5CCC(=O)NC5=O)C4)CC3)CC2)c(CC)cc1Nc1ncc(Br)c(Nc2cc(F)c3nc(CC)ccc3c2P(C)(C)=O)n1 (stereo not shown) [Example 562]
unit-abbreviation: %
Dmax (%) H1975 # 28 DTC: 77.73
--
compound: CCc1cc(Nc2ncc(Br)c(Nc3ccc4nc(C)ccc4c3P(C)(C)=O)n2)c(OC)cc1N1CCC(N2CCN(CCc3ccc4c(c3)oc(=O)n4C3CCC(=O)NC3=O)CC2)CC1 (stereo not shown) [Example 490]
unit-abbreviation: %
Dmax (%) H1975 # 28 DTC: 80.5
--
compound: CCc1cc(Nc2ncc(Br)c(Nc3ccc4c(=O)n(C)ncc4c3P(C)(C)=O)n2)c(OC)cc1N1CCC(N2CCN(CCc3ccc4c(c3)oc(=O)n4C3CCC(=O)NC3=O)CC2)CC1 (stereo not shown) [Example 523]
unit-abbreviation: %
Dmax (%) H1975 # 28 DTC: 72.16
--
compound: CCc1cc(Nc2ncc(Br)c(Nc3ccc4c(=O)n(C5CC5)ncc4c3P(C)(C)=O)n2)c(OC)cc1N1CCC(N2CCN(CCC3CCN(c4cc(F)c([C@H]5CCC(=O)NC5=O)c(F)c4)CC3)CC2)CC1 [Example 578]
unit-abbreviation: %
Dmax (%) H1975 # 28 DTC: 87.5
--
compound: CCOc1cc(N2CCC(N3CCN(CCc4cc(F)c([C@H]5CCC(=O)NC5=O)c(F)c4)CC3)CC2)c(CC)cc1Nc1ncc(C)c(Nc2cc(F)c3nc(CC)ccc3c2P(C)(C)=O)n1 [Example 733]
unit-abbreviation: %
Dmax (%) H1975 # 28 DTC: 84.52
--
compound: CCOc1cc(N2CCC(N3CCN(CCc4cc(Cl)cc5c4oc(=O)n5C4CCC(=O)NC4=O)CC3)CC2)c(CC)cc1Nc1ncc(Br)c(Nc2ccc3c(=O)n(CC)ncc3c2P(C)(C)=O)n1 (stereo not shown) [Example 599]
unit-abbreviation: %
Dmax (%) H1975 # 28 DTC: 80.53
--
compound: CCc1ccc2c(P(C)(C)=O)c(Nc3nc(Nc4cc(CC)c(N5CCC(N6CCN(CCc7cc8oc(=O)n(C9CCC(=O)NC9=O)c8cc7F)CC6)CC5)cc4OC)ncc3Br)ccc2n1 (stereo not shown) [Example 457]
unit-abbreviation: %
Dmax (%) H1975 # 28 DTC: 74.18
--
compound: CCOc1cc(N2CCC(N3CCN(CCc4ccc5c(oc(=O)n5C5CCC(=O)NC5=O)c4Cl)CC3)CC2)c(CC)cc1Nc1ncc(Br)c(Nc2ccc3nc(CC)ccc3c2P(C)(C)=O)n1 (stereo not shown) [Example 624]
unit-abbreviation: %
Dmax (%) H1975 # 28 DTC: 73.81
--
compound: CCOc1cc(N2CCC(N3CCN(CCc4ccc5c(c4)oc(=O)n5C4CCC(=O)NC4=O)CC3)CC2)c(CC)cc1Nc1ncc(Br)c(Nc2cc(F)c3nc(CC)ccc3c2P(C)(C)=O)n1 (stereo not shown) [Example 500]
unit-abbreviation: %
Dmax (%) H1975 # 28 DTC: 71.9
--
compound: CCc1ncc2c(P(C)(C)=O)c(Nc3nc(Nc4cc(CC)c(N5CCC(N6CCN(C(=O)[C@@H]7CCN(c8cc(F)c([C@H]9CCC(=O)NC9=O)c(F)c8)C7)CC6)CC5)cc4OC)ncc3Br)ccc2n1 [Example 549]
unit-abbreviation: %
Dmax (%) H1975 # 28 DTC: 88.85
